Measured IC50, listed per entry for reference.
Molecular target: hGnRH-Receptor (Homo sapiens, UniProt P30968)
Sequence (P30968 1-328): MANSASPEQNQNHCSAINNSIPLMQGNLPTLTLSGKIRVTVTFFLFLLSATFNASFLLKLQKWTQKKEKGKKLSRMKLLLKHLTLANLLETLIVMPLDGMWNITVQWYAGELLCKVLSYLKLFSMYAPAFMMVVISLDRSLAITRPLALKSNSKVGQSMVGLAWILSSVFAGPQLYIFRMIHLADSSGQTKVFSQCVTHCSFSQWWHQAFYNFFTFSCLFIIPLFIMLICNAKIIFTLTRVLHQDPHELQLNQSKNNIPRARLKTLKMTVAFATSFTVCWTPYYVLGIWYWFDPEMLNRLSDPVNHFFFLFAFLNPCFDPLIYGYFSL
Give a bare numeral; the unit nM is implied.

Here are 2 compounds together with their reported answers.
CC[C@H](C)[C@H](NC(=O)OCc1ccccc1)C(=O)N[C@]1(C(=O)N[C@H](C(N)=O)C(C)C)CCc2[nH]c3c(C)cccc3c2C1 [Compound 150a] : 110
CC[C@H](C)[C@H](NC(=O)OCc1ccccc1)C(=O)N[C@]1(C(=O)N[C@H](C(N)=O)C(C)C)CCc2[nH]c3c(Cl)cc(Cl)cc3c2C1 [Compound 184a] : 15

Kindly review the next compound as well.
# get_value(readout='IC50', item= CC[C@H](C)[C@H](NC(=O)OCc1ccccc1)C(=O)N[C@]1(C(=O)N2CCC[C@H]2C(N)=O)CCc2[nH]c3ccccc3c2C1 [Compound 181a] )
700

* * *

Target: GnRH receptor (Homo sapiens, UniProt P30968)
Assay: Ca2+ release, human
Conditions: read-out: Ca^2+ Release Human IC50
Recorded Metric: IC50 (nM)
Give a bare numeral; the unit nM is implied.

CC[C@H](C)[C@H](NC(=O)OCc1ccccc1)C(=O)N[C@]1(C(=O)N2CCC[C@H]2C(N)=O)CCc2[nH]c3ccccc3c2C1 [Compound 181a] : 3000
CC(C)[C@H](NC(=O)[C@@]1(NC(=O)Cc2cccc(Br)c2)CCc2[nH]c3ccccc3c2C1)C(N)=O [Compound 96] : 3000

# get_value(readout='IC50', item= COc1ccc(CC(=O)NC2(C(=O)N[C@H](C(N)=O)C(C)C)CCc3[nH]c4ccccc4c3C2)cc1 (stereo partly shown) [Compound 175] )
1800

# get_value(readout='IC50', item= CC[C@H](C)[C@H](NC(=O)OCc1ccccc1)C(=O)N[C@]1(C(=O)N[C@H](C(N)=O)C(C)C)CCc2[nH]c3c(OC)cccc3c2C1 [Compound 147a] )
250

# get_value(readout='IC50', item= CC(C)[C@H](NC(=O)[C@@]1(NCCCCCCc2ccccc2)CCc2[nH]c3ccccc3c2C1)C(N)=O [Compound 234a] )
1000

# get_value(readout='IC50', item= CC(C)[C@H](NC(=O)[C@@]1(NC(=O)Cc2ccc(Cl)cc2)CCc2[nH]c3ccccc3c2C1)C(N)=O [Compound 167a] )
2600

# get_value(readout='IC50', item= CC(C)C(NC(=O)C1(NC(=O)C(Cc2ccccc2)c2ccccc2)CCc2[nH]c3ccccc3c2C1)C(=O)NC(CC(N)=O)C(N)=O (stereo not shown) [Compound 18] )
5000

* * *

Target: UniProtKB P30968
Sequence (P30968 1-328): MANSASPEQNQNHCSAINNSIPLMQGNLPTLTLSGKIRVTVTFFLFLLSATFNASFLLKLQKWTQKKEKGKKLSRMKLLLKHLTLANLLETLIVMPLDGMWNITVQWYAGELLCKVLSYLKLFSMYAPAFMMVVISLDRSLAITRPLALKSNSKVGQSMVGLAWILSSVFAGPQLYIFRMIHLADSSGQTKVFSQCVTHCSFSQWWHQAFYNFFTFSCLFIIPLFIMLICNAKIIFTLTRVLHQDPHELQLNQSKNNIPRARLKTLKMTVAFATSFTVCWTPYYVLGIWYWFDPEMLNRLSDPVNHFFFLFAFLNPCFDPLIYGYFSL
Response field label: string, one of Y (IC50 strictly below 1000 nM) or N.

Worked examples, 5 molecules total:
CC(C)[C@H](NC(=O)[C@]1(NC(=O)Cc2c[nH]c3ccccc23)CCc2[nH]c3ccccc3c2C1)C(N)=O [Compound 164b] : N
CC(C)[C@H](NC(=O)[C@@]1(NCCCCCCc2ccccc2)CCc2[nH]c3ccccc3c2C1)C(N)=O [Compound 234a] : N
CC[C@H](C)[C@H](NC(=O)OCc1ccccc1)C(=O)N[C@]1(C(=O)N[C@H](C(=O)NC)C(C)C)CCc2[nH]c3ccccc3c2C1 [Compound 222a] : N
CC[C@H](C)[C@H](NC(=O)OCc1ccccc1)C(=O)N[C@]1(C(=O)N[C@H](CO)C(C)C)CCc2[nH]c3ccccc3c2C1 [Compound 267a] : Y
CC(C)C(NC(=O)C1(NC(=O)C(Cc2ccccc2)c2ccccc2)CCc2[nH]c3ccccc3c2C1)C(=O)NC(CC(N)=O)C(N)=O (centres unmarked) : Y

Lab note: next molecule to report on.
hey, is IC50 for CC[C@H](C)[C@H](NC(=O)OCc1ccccc1)C(=O)N[C@]1(C(=O)N[C@H](C(N)=O)C(C)C)CCc2[nH]c3ccc(Cl)cc3c2C1 [Compound 148a] lower than 1000 nM or not?
Y
